Taken from patent US20240299387A1.

target-under-test: EGFR L858R T790M in NCI-H1975 cell line (Homo sapiens, UniProt P00533, L858R/T790M)
Construct: host or cells: NCI-H1975
Sequence (P00533 25-1210 T790M/L858R): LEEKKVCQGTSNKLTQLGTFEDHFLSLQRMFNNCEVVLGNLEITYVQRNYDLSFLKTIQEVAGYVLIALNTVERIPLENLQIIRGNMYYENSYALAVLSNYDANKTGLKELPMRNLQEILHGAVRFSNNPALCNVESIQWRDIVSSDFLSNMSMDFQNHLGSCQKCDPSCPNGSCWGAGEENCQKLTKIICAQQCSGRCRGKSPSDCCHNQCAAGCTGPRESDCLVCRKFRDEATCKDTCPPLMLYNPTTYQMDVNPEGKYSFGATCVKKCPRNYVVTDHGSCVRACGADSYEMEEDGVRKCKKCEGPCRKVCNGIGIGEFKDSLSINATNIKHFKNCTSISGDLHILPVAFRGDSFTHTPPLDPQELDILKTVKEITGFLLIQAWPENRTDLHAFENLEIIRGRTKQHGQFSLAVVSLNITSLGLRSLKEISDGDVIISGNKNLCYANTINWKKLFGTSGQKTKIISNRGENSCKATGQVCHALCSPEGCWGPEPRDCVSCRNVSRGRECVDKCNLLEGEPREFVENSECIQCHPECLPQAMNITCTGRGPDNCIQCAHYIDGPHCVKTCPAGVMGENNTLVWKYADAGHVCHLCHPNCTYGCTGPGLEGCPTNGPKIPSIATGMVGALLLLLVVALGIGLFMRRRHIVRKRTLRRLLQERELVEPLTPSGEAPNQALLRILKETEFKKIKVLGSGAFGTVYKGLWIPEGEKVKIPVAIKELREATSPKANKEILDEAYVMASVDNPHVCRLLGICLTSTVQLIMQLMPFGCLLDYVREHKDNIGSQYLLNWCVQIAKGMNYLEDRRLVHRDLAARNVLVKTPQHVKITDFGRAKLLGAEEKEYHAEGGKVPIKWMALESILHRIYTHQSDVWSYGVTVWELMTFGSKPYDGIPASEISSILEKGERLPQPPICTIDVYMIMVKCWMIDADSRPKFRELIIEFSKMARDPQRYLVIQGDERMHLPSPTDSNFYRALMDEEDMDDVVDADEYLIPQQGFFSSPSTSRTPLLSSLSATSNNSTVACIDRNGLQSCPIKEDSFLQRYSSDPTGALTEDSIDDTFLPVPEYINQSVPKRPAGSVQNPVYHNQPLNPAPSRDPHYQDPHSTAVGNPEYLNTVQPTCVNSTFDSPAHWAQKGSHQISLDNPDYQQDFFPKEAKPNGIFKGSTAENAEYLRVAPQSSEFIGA
test: NCI-H1975 pEGFR AlphaLISA assay
Assay type: cell-based
reported-conditions: NCI-H1975 cells (EGFR L858R T790M), p-EGFR (Tyr1068), 4-5 hours incubation; read-out: Ext pEGFR H1975 GMean IC50 (nM) Protocol: @Pharmaron AlphaLISA (Num)
Method: The NCI-H1975 cells were seeded at 12.5K/well in 22 μL into 384 well opti plate (PerkinElmer, 6007299) and adhering overnight at 37C/5% CO2. On the next day, the test compounds and DMSO control were added into H1975 cell plate followed by incubation at 37C/5% CO2 for 4-5 hours. […] Then 5 μL of a donor bead mix was added to each well followed by overnight incubation at room temperature in dark. On the next day, the plate was read at a compatible plate reader to obtain pEGFR signal. […]
measured-metric: IC50

Exam item: Fill in the blank: the reported IC50 of CC(C)c1ccc(OCc2cnn(C)c2)c2cnc(Nc3ccnc(N4CC[C@@H](O)[C@@](C)(F)C4)n3)cc12 [Example 9] is ____.
Marked response: > 50 nM

Exam item: Fill in the blank: the reported IC50 of CC(C)c1ccc(OC[C@H]2CN(C)C(=O)O2)c2cnc(Nc3ccnc(N4CCC(C)(O)CC4)n3)cc12 [Example 16] is ____.
Marked response: > 50 nM

Exam item: Fill in the blank: the reported IC50 of [2H]C([2H])([2H])O[C@H]1CCN(c2nccc(Nc3cc4c(C(C)C)ccc(OCCn5ccnc5)c4cn3)n2)C[C@H]1F [Example 48] is ____.
Marked response: > 50 nM

Exam item: Fill in the blank: the reported IC50 of COCCNC(=O)c1ncc(C(C)C)c2cc(Nc3ccnc(N4CC[C@@H](O)[C@@](C)(F)C4)n3)ncc12 [Example 66] is ____.
Marked response: > 50 nM

Exam item: Fill in the blank: the reported IC50 of CC(C)c1ccc(OCCn2cnnc2)c2cnc(Nc3ccnc(N4CC[C@H]5COC[C@H]54)n3)cc12 (single isomer, unassigned) [Example 50] is ____.
Marked response: > 50 nM

Exam item: Fill in the blank: the reported IC50 of CC(=O)N1CC(CNc2ccc(C(C)C)c3cc(Nc4ccnc(N5CC[C@@H](O)[C@@](C)(F)C5)n4)ncc23)C1 [Example 5] is ____.
Marked response: 20 to 30 nM

Exam item: Fill in the blank: the reported IC50 of [2H]C([2H])([2H])O[C@H]1CCN(c2nccc(Nc3cc4c(C(C)C)ccc(OCCn5cnnc5)c4cn3)n2)C[C@H]1F [Example 44] is ____.
Marked response: > 50 nM

Exam item: Fill in the blank: the reported IC50 of CO[C@H]1CCN(c2nccc(Nc3cc4c(C(C)C)ccc(OCC5CN(C(C)=O)C5)c4cn3)n2)C[C@@H]1O (single isomer, unassigned) [Example 57] is ____.
Marked response: > 50 nM

Exam item: Fill in the blank: the reported IC50 of CC(C)c1cnc(NC[C@H](C)N(C)C)c2cnc(Nc3ccnc(N4CC[C@@H](O)[C@@](C)(F)C4)n3)cc12 (single isomer, unassigned) [Example 4] is ____.
Marked response: > 50 nM

Exam item: Fill in the blank: the reported IC50 of CC(C)c1cnc(N(C)C)c2cnc(Nc3ccnc(N4CC[C@@H](O)[C@@H](F)C4)n3)cc12 [Example 94] is ____.
Marked response: > 50 nM

Exam item: Fill in the blank: the reported IC50 of CC(C)c1ccc(OCCn2ccnc2)c2cnc(Nc3ccnc(N4CC[C@](C)(O)[C@H](F)C4)n3)cc12 [Example 29] is ____.
Marked response: 20 to 30 nM

Exam item: Fill in the blank: the reported IC50 of CC(=O)N1CC(COc2ccc(C(C)C)c3cc(Nc4ccnc(N5CCC(C)(O)CC5)n4)ncc23)C1 [Example 14] is ____.
Marked response: > 50 nM

Exam item: Fill in the blank: the reported IC50 of Cc1noc(C)c1CCOc1ccc(C(C)C)c2cc(Nc3ccnc(N4CC[C@@H](OCCO)[C@@H](F)C4)n3)ncc12 [Example 43] is ____.
Marked response: > 50 nM

Exam item: Fill in the blank: the reported IC50 of CC(C)c1cnc(C(=O)N[C@H]2CC2(F)F)c2cnc(Nc3ccnc(N4CC[C@@H](O)[C@@](C)(F)C4)n3)cc12 (single isomer, unassigned) [Example 63] is ____.
Marked response: > 50 nM

Exam item: Fill in the blank: the reported IC50 of CC(C)c1cnc(C(=O)N[C@H](C)CF)c2cnc(Nc3ccnc(N4CC[C@@H](O)[C@@](C)(F)C4)n3)cc12 [Example 71] is ____.
Marked response: > 50 nM

Exam item: Fill in the blank: the reported IC50 of CO[C@@H]1CCN(c2nccc(Nc3cc4c(C(C)C)ccc(NCC5CNC[C@@H]5S(C)(=O)=O)c4cn3)n2)C[C@@H]1F (single isomer, unassigned) [Example 1] is ____.
Marked response: 30 to 50 nM

Exam item: Fill in the blank: the reported IC50 of CC(C)c1ccc(OCCc2cncn2C)c2cnc(Nc3ccnc(N4CC[C@](C)(O)[C@H](F)C4)n3)cc12 [Example 38] is ____.
Marked response: > 50 nM

Exam item: Fill in the blank: the reported IC50 of CC(C)c1cnc(C(=O)N[C@H]2CNC[C@H]2F)c2cnc(Nc3ccnc(N4CC[C@@H](O)[C@@](C)(F)C4)n3)cc12 (racemic) [Example 85] is ____.
Marked response: 10 to 20 nM

Exam item: Fill in the blank: the reported IC50 of CC(C)c1cnc(C(=O)N[C@@H]2CNC[C@H]2F)c2cnc(Nc3ccnc(N4CC[C@@H](O)[C@@](C)(F)C4)n3)cc12 (racemic) [Example 86] is ____.
Marked response: > 50 nM

Exam item: Fill in the blank: the reported IC50 of CC(C)c1cnc(C(N)=O)c2cnc(Nc3ccnc(N4CC[C@@H](O)[C@@](C)(F)C4)n3)cc12 (single isomer, unassigned) [Example 61] is ____.
Marked response: > 50 nM

Exam item: Fill in the blank: the reported IC50 of CO[C@H]1C[C@@H](NC(=O)c2ncc(C(C)C)c3cc(Nc4ccnc(N5CC[C@@H](O)[C@@](C)(F)C5)n4)ncc23)C1 [Example 73] is ____.
Marked response: 20 to 30 nM

Exam item: Fill in the blank: the reported IC50 of CNc1nnc(C(C)C)c2cc(Nc3ccnc(N4CC[C@@H](O)[C@@H](F)C4)n3)ncc12 [Example 95] is ____.
Marked response: > 50 nM

Exam item: Fill in the blank: the reported IC50 of CC(C)c1cnc(C(=O)N[C@H]2C[C@@](C)(O)C2)c2cnc(Nc3ccnc(N4CC[C@@H](O)[C@@](C)(F)C4)n3)cc12 [Example 83] is ____.
Marked response: 30 to 50 nM

Exam item: Fill in the blank: the reported IC50 of CC(C)c1ccc(OC[C@H]2CCC(=O)N2C)c2cnc(Nc3ccnc(N4CCC(C)(O)CC4)n3)cc12 (single isomer, unassigned) [Example 19] is ____.
Marked response: 10 to 20 nM

Exam item: Fill in the blank: the reported IC50 of CC(=O)N1CC(COc2ccc(C(C)C)c3cc(Nc4ccnc(N5CC[C@@](C)(O)[C@@H](F)C5)n4)ncc23)C1 [Example 11] is ____.
Marked response: > 50 nM

Exam item: Fill in the blank: the reported IC50 of CC(C)c1ccc(OCC2CCc3cncn32)c2cnc(Nc3ccnc(N4CCC(C)(O)CC4)n3)cc12 (centres unmarked) [Example 18] is ____.
Marked response: 20 to 30 nM
